The reported measurements were obtained from patent US20230146782A1.

assay: Pharmacokinetic test: gavage to rats, active metabolites in plasma and liver by LC-MS/MS; conditions: rat, liver, po, 0.0576 mmol/kg
Readout label: Tmax (min)
The response must be a number in min with no trailing unit.

Reported Tmax ( CC[C@H]1[C@@H](O)[C@@H]2[C@H](CC[C@]3(C)[C@@H]([C@H](C)CCC(=O)O)CC[C@@H]23)[C@@]2(C)CC[C@@H](O)C[C@@H]12 ) = 30

###

experiment: in vivo; conditions: rat, po, 0.0576 mmol/kg
Readout label: AUC(0-t) (ng·h/mL)
The response must be a number in ng·h/mL with no trailing unit.

Reported AUC(0-t) ( CC[C@H]1[C@@H](O)[C@@H]2[C@H](CC[C@]3(C)[C@@H]([C@H](C)CCC(=O)NCC(=O)O)CC[C@@H]23)[C@@]2(C)CC[C@@H](O)C[C@@H]12 [Compound 4] ) = 7310

###

assay: in vivo; settings: rat, po, 0.0576 mmol/kg, MRT0-last
Readout label: MRT last (h)
The response must be a number in h with no trailing unit.

Reported MRT last ( CC[C@H]1[C@@H](O)[C@@H]2[C@H](CC[C@]3(C)[C@@H]([C@H](C)CCC(=O)NCC(=O)O)CC[C@@H]23)[C@@]2(C)CC[C@@H](O)C[C@@H]12 [Compound 4] ) = 5.56
